All values here come from patent US9102638B2.

Test system: NCI-H226
Test: In vitro cytotoxicity, NCI screen: NCI-H226 (Non-small cell lung)
Assay type: cell-based
Details: Homo sapiens; NCI-H226, Non-small cell lung panel, NCI protocol; read-out: GI50 values (μM conc.)
Entries annotated with measured GI50

Record excerpt, results attached:
> print(dat)
                         structure.notation   result
1  COc1ccc(/C=C\c2cc(OC)c(OC)c(OC)c2)cc1OCC(=O)Nc1nc2ccc(F)cc2s1   5.6 µM
2  COc1ccc2nc(NC(=O)COc3cc(/C=C\c4cc(OC)c(OC)c(OC)c4)ccc3OC)sc2c1  4.51 µM

Prompt: Supply recorded GI50 for `COc1ccc(/C=C/C(=O)c2cc(OC)c(OC)c(OC)c2)cc1OCC(=O)Nc1nc2ccc(OC(F)(F)F)cc2s1` here.
Response: 3.35 µM

Prompt: Supply recorded GI50 for `COc1ccc(/C=C\c2cc(OC)c(OC)c(OC)c2)cc1OCC(=O)Nc1nc2ccccc2s1` here.
Response: 0.27 µM
